system: J774.A1; test: Antiinflammatory activity in LPS-induced mouse J774.A1 cells assessed as inhibition of LPS-induced IL-6 release at 10 uM preincubated for 30 mins followed by LPS stimulation for 24 hrs by ELISA method; type: functional; conditions: time 24.5 hrs
Hi there, I'd appreciate the recorded inhibition at 10 µM for every entry that follows.
API: value field is a number in %; no unit string.

[ask] Fill blank: measured inhibition at 10 µM of the molecule COc1cc2nccc(Oc3cccc(NC(=O)c4cn(-c5ccc(F)c(Cl)c5)c5ccccc5c4=O)c3)c2cc1OC is ____.
[reply] 49.7

[ask] Fill blank: measured inhibition at 10 µM of the molecule COc1cc2ncnc(Oc3ccc(NC(=O)c4cn(-c5ccc(Cl)cc5)c5ccccc5c4=O)cc3)c2cc1OC is ____.
[reply] 30.5

[ask] Fill blank: measured inhibition at 10 µM of the molecule COc1cc2nccc(Oc3cccc(NC(=O)c4cn(-c5ccc(F)cc5)c5ccccc5c4=O)c3)c2cc1OC is ____.
[reply] 51.3

[ask] Fill blank: measured inhibition at 10 µM of the molecule COc1cc2nccc(Oc3cccc(NC(=O)c4cn(-c5ccccc5)c5ccccc5c4=O)c3)c2cc1OC is ____.
[reply] 44.8

[ask] Fill blank: measured inhibition at 10 µM of the molecule COc1cc2ncnc(Oc3cccc(NC(=O)c4cn(-c5ccc(Cl)cc5)c5ccccc5c4=O)c3)c2cc1OC is ____.
[reply] 32.3

[ask] Fill blank: measured inhibition at 10 µM of the molecule COc1cc2nccc(Oc3cccc(NC(=O)c4cn(-c5ccc(OC(F)(F)F)cc5)c5ccccc5c4=O)c3)c2cc1OC is ____.
[reply] 66.4

FYI, the data here is from ChEMBL document CHEMBL5346889.
